# System: HT29 colon
# procedure-details: NCI tumour cell line growth inhibition, 48 h
Catalogue of TGI values

Below are worked cases with known answers.
# compound, TGI
rows = [
    ("Cc1cc(-c2ccccc2)nc(Nc2nc3ccccc3o2)n1", "> 100 µM"),
    ("COC(=O)C(=CNC(N)=O)C(=O)OC", "> 100 µM"),
    ("Cc1nc2c(o1)C(=Nc1ccccc1)c1ccccc1C2=O", "35.9 µM"),
    ("COc1ccc(NC(=O)CC(=O)n2nc(C)c(N=Nc3cccc(C)c3)c2C)cc1", "> 100 µM"),
    ("C#CC[N+](C)(CC#C)CC#C", "> 100 µM"),
    ("O=S(OC12CC3CC(CC(C3)C1)C2)c1cc(Cl)cc(Cl)c1OCc1ccccc1 (configuration not stated)", "> 100 µM"),
]

Data request: Consider the compound COc1cc(C2SC(C)C(=O)N2c2ccc(-c3csc(NS(=O)(=O)c4ccc(Cl)c(OC)c4)n3)cc2)ccc1O (configuration not stated) and give its recorded TGI.
Data returned: > 100 µM

Data request: Please list TGI recorded for the compound Nc1nc(N)c(C=Nc2ccc(Br)cc2)c(Nc2ccc(Br)cc2)n1
Data returned: > 100 µM

Data request: Supply TGI value. Item: S=C(Nc1ccc(N=Nc2ccccc2)cc1)SCc1ccccc1
Data returned: 52.1 µM

Data request: Give the reported TGI for this compound. CCC/C=C1\CCC(CN(C)C)C1=O (configuration not stated)
Data returned: 17.9 µM

Data request: Respond only with TGI recorded for O=S(=O)(O)c1ccc(N=Nc2nc(C(F)(F)F)c(C(F)(F)F)[nH]2)cc1
Data returned: > 100 µM

Data request: Write down TGI measured for item CN(C)c1nnnn1-c1c(N)n(C)c(=O)n(C)c1=O
Data returned: > 100 µM

Where do these numbers come from? They come from PubChem BioAssay (NCI).
